Tgt: PD-1/PD-L1 interaction (Homo sapiens, UniProt Q9NZQ7)
Construct: Tag1 or Tag2 (undisclosed kit tag); purchased Cisbio
Sequence (Q9NZQ7 19-238 limits assumed): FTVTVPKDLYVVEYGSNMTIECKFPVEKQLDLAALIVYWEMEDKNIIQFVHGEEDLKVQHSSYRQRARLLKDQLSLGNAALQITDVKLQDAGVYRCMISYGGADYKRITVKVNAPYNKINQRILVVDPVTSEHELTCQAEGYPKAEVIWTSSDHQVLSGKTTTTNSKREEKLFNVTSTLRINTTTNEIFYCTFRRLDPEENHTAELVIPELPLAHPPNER
Test details: Cisbio PD-1/PD-L1 Homogeneous Time-Resolved Fluorescence (HTRF) binding assay
Measurement context: Table 9; read-out: Reported IC50
Readings of log10(IC50) for the listed compounds
Observable: log10(IC50) (log10 of the value in nM)

| Smiles input | log10(IC50) |
| --- | --- |
| COc1ccc(CN2CCC[C@H]2CNc2nc(CN3CCN(C(=O)c4cc(OC)c(OC)c(OC)c4)CC3)cs2)cc1 | 3.96 |
| COc1cc(C(=O)N2CCN(Cc3csc(NC[C@@H]4C[C@@H](OC)CN4Cc4ccc(Br)cc4)n3)CC2)cc(OC)c1OC | 2.23 |
| COc1cc(C(=O)N2CCN([C@@H](C)c3csc(NC[C@@H]4CCCN4Cc4ccc(Br)cc4)n3)CC2)cc(OC)c1OC | 2.33 |
| O=C(c1ccc(=O)[nH]c1)N1CCN(Cc2csc(NC[C@@H]3CCCN3Cc3ccc(Br)cc3)n2)CC1 | 2.39 |
| CC(=O)N1CCN(Cc2csc(NC[C@@H]3CCCN3Cc3ccc(Br)cc3)n2)CC1 | 3.41 |
| COc1cc(C(=O)N2CCN(Cc3csc(NC[C@@H]4CCCN4Cc4cccc(Br)c4)n3)CC2)cc(OC)c1OC | 4.56 |
| COc1ccc(C(=O)N2CCN(Cc3csc(NC[C@@H]4CCCN4Cc4ccc(Br)cc4)n3)CC2)cc1OC | 2.79 |
| COc1cc(C(=O)N2CCN(Cc3csc(NC[C@@H]4CCCN4Cc4ccc(C)cc4)n3)CC2)cc(OC)c1OC | 3.54 |
| COc1cc(C(=O)C2CCN(Cc3csc(NC[C@@H]4CCCN4Cc4ccc(Br)cc4)n3)CC2)cc(OC)c1OC | 2.04 |
| COc1ccc(C(=O)N2CCN(Cc3csc(NC[C@@H]4CCCN4Cc4ccc(Br)cc4)n3)CC2)cc1 | 3.08 |
| COc1cc(C(=O)N2CCN(Cc3csc(NC[C@@H]4CCCN4Cc4ccc(Br)c(F)c4)n3)CC2)cc(OC)c1OC | 1.96 |
| Cn1ncc2cc(C(=O)N3CCN(Cc4csc(NC[C@@H]5CCCN5Cc5ccc(Br)cc5)n4)CC3)ccc21 | 2.69 |

Attribution: patent US20230219942A1
